The origin of these recorded values is PubChem BioAssay AID1159580.

Would you kindly list normalized growth for each of these molecules?
Experiment: chemical genetic growth profiling, strain panel (AID 1159580);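 further: tested at 20 µM; growth read once vehicle control cultures reached saturation at 30 °C; 1 = growth at the plate median or of vehicle wells; lower values mean less growth of the strain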
Details: S. cerevisiae deletion strains, growth OD, locus YDR150W, strain NUM1, hits give low values
The campaign covered roughly 5,500 compounds. About 2,000 (36%) were called active. About 18% were inconclusive and are not listed. This is one part of the list.
Give bare numbers.

List reported normalized growth for each of these molecules:
1. O=c1cc(-c2ccccc2)[nH]c2nc(Cl)ccc12
2. Cc1cc(NS(=O)(=O)c2ccc(NC(=O)c3ccccc3)cc2)no1
3. CC(C)(C)c1cc(C(=O)NN)n[nH]1
4. C=C[C@H]1CN2CC[C@H]1C[C@H]2[C@H](O)c1ccnc2ccccc12
5. Nc1cccc2c1C(=O)c1ccccc1-2
6. CC(C)N1C(=O)c2ccccc2NS1(=O)=O

Ans.
[1.01, 1.03, 0.995, 0.966, 0.95, 0.996]

---

Assay: chemical genetic growth profiling, strain panel (AID 1159580);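 further: tested at 20 µM; growth read once vehicle control cultures reached saturation at 30 °C; 1 = growth at the plate median or of vehicle wells; lower values mean less growth of the strain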
Conditions: S. cerevisiae deletion strains, growth OD, locus YDR001C, strain nth1, hits give low values
About 2,000 (36%) of roughly 5,500 compounds were called active. Roughly 18% stayed inconclusive and do not appear here. Some of the results follow.
readout label: normalized growth
One number for each entry.

Known normalized growth results, listed for orientation:
{"compound": "O=C(O)C1=C(CSc2nnnn2CS(=O)(=O)O)CS[C@@H]2C(NC(=O)[C@H](O)c3ccccc3)C(=O)N12 (some centres undefined)", "test value": 0.978}
{"compound": "CC(C)N1C(=O)c2ccccc2NS1(=O)=O", "test value": 0.955}

# map each compound to its normalized growth
1. CC(=O)CCCCn1c(=O)c2c(ncn2C)n(C)c1=O
2. CC(C)[C@@H]1CC[C@@H](C)C[C@H]1OC(=O)c1ccccc1
3. CC1CC(OC(=O)c2ccccc2O)CC(C)(C)C1 (centres undefined)
4. CC(=O)NS(=O)(=O)c1ccc(N)cc1

Ans.
1. 1.01
2. 0.994
3. 0.984
4. 1.01

---

Assay: chemical genetic growth profiling, strain panel (AID 1159580);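 further: tested at 20 µM; growth read once vehicle control cultures reached saturation at 30 °C; 1 = growth at the plate median or of vehicle wells; lower values mean less growth of the strain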
Details: S. cerevisiae deletion strains, growth OD, locus YMR205C, strain PFK2 (second series), hits give low values
In all, about 5,500 compounds went through this assay and about 2,000 (36%) were called active. Roughly 18% stayed inconclusive and do not appear here. This is one part of the list.
readout label: normalized growth
Give bare numbers.

{"smiles input": "O=[N+]([O-])c1ccc(Sc2ccccc2)cc1O", "normalized growth": 0.824}

Fill in normalized growth for each of the 5 compounds listed.
1. S=C(NCc1cccs1)Nc1cc(Cl)cc(Cl)c1
2. Cc1csc2ncnc(N3CCN(C(=S)Nc4ccc(C(F)(F)F)cc4)CC3)c12
3. CC(C)Sc1c(Cl)cccc1NC(=O)Nc1ccccc1
4. CC(C)Sc1c(Cl)cccc1NC(=O)Nc1cccc(C(F)(F)F)c1
5. S=C(NCCc1csc2ccccc12)Nc1ccc(Cl)cc1

Ans.
0.918
0.954
0.863
0.936
0.84

For every item below, please supply its normalized growth.
1. CC(=O)c1ccc(Sc2ccccc2)c([N+](=O)[O-])c1
2. CC(C)(C)c1ccc(-c2cc(NC(=O)c3ccc(Cl)cc3)n[nH]2)cc1
3. Cc1csc2c(N3CCN(C(=S)Nc4ccc(C(F)(F)F)cc4)CC3)ncnc12

Ans.
0.772
0.99
0.949
